observation.type: O2 permeability (Barrer)

>  <compound>
*C1C2CC(CF)C(C2)C1* (repeat unit)

>  <observation.type>
O2 permeability

>  <reported.measurement>
50

$$$$
>  <compound>
*c1c(C)cc(-c2cc(C)c(N3C(=O)c4cc5c(cc4C3=O)S(=O)(=O)c3cc4c(cc3S5(=O)=O)C(=O)N(*)C4=O)c(C)c2)cc1C (repeat unit)

>  <observation.type>
O2 permeability

>  <reported.measurement>
6.6

$$$$

[P] *c1c(C)cc(-c2cc(C)c(N3C(=O)c4ccc(Oc5cc(C)c(Oc6ccc7c(c6)C(=O)N(*)C7=O)c(C)c5C)cc4C3=O)c(C)c2)cc1C (repeat unit)
[Q] *C(=C(*)c1ccc2c(c1)Cc1ccccc1-2)c1ccc([Si](C)(C)C)cc1 (repeat unit)
[R] *Nc1c(C)cc(C(C)(C)c2cc(C)c(NC(=O)c3ccc(Oc4cc(C(C)(C)C)c(Oc5ccc(C(*)=O)cc5)cc4C(C)(C)C)cc3)c(C)c2)cc1C (repeat unit)
[S] *Oc1cc2c(cc1O*)C1(CC2(C)C)CC(C)(C)c2cc3c(cc21)Oc1cc2nc4cc5c(cc4nc2cc1O3)C(C)(C)CC51CC(C)(C)c2cc3nc4cc(*)c(*)cc4nc3cc21 (repeat unit)
[T] *c1ccc(Oc2ccc(N3C(=O)c4ccc(C(=O)c5ccc6c(c5)C(=O)N(*)C6=O)cc4C3=O)cc2)cc1 (repeat unit)
[in] Order these by O2 permeability, descending, and give the full ranking. Please respond by ranking the labels in the order requested.
[out] Q, S, R, P, T
(Q: 1650 Barrer, S: 190 Barrer, R: 9.38 Barrer, P: 6.5 Barrer, T: 0.18 Barrer)

====

observation.type: CH4 permeability (Barrer)

A selection of reference data follows.
>  <compound>
*c1ccc(Oc2ccc(N3C(=O)c4ccc([Si](C)(C)c5ccc6c(c5)C(=O)N(*)C6=O)cc4C3=O)cc2)cc1 (repeat unit)

>  <unit.info>
Barrer

>  <CH4 permeability>
0.161

$$$$
>  <compound>
*OC(=O)Oc1ccc(C(=C(Cl)Cl)c2ccc(*)cc2)cc1 (repeat unit)

>  <unit.info>
Barrer

>  <CH4 permeability>
0.27

$$$$
>  <compound>
*C(=C(*)c1ccc(C(C)(C)C)cc1)c1ccc(O)cc1 (repeat unit)

>  <unit.info>
Barrer

>  <CH4 permeability>
46

$$$$
>  <compound>
*c1ccc(Oc2ccc(C(c3ccc(Oc4ccc(N5C(=O)c6ccc(C(=O)c7ccc8c(c7)C(=O)N(*)C8=O)cc6C5=O)cc4)cc3)(C(F)(F)F)C(F)(F)F)cc2)cc1 (repeat unit)

>  <unit.info>
Barrer

>  <CH4 permeability>
0.105

$$$$
>  <compound>
*c1ccc(C(c2ccc(-c3nnc(*)o3)cc2)(C(F)(F)F)C(F)(F)F)cc1 (repeat unit)

>  <unit.info>
Barrer

>  <CH4 permeability>
4.55

$$$$
>  <compound>
*C(C)=C(*)CC(C)C (repeat unit)

>  <unit.info>
Barrer

>  <CH4 permeability>
190

$$$$

[A] *Oc1cccc2c(Oc3ccc(S(=O)(=O)c4ccc(*)cc4)cc3)cccc12 (repeat unit)
[B] *Oc1ccc(Oc2ccc(C(=O)c3ccc(*)cc3)cc2)c(-c2cc(C(F)(F)F)cc(C(F)(F)F)c2)c1 (repeat unit)
[in] Kindly compare A with B and tell me which has the lower CH4 permeability figure. Your answer should be the label attached to the chosen record.
[out] A

====

observation.type: CH4 permeability (Barrer)

A selection of reference data follows.
>  <molecule>
*O[Si](*)(C)CC (repeat unit)

>  <unit.info>
Barrer

>  <CH4 permeability>
474

$$$$
>  <molecule>
*Nc1ccc(Oc2c(F)c(F)c(Oc3ccc(NC(=O)CN4C(=O)c5ccc(C(*)=O)cc5C4=O)cc3)c(F)c2F)cc1 (repeat unit)

>  <unit.info>
Barrer

>  <CH4 permeability>
0.013

$$$$
>  <molecule>
*Oc1ccc(C(C)(C)c2ccc(Oc3ccc4c(c3)C(=O)N(c3cccc(N5C(=O)c6ccc(*)cc6C5=O)c3)C4=O)cc2)cc1 (repeat unit)

>  <unit.info>
Barrer

>  <CH4 permeability>
0.0356

$$$$
>  <molecule>
*c1ccc2c(c1)C1(CC2(C)C)CC(C)(C)c2ccc(N3C(=O)c4cc5c(cc4C3=O)C3(CC(C)(C)c4cc6c(cc43)C(=O)N(*)C6=O)CC5(C)C)cc21 (repeat unit)

>  <unit.info>
Barrer

>  <CH4 permeability>
129

$$$$
>  <molecule>
*c1ccc(Oc2ccc(C(c3ccc(Oc4ccc(-n5c(=O)c6cc7c(=O)n(*)c(=O)c7cc6c5=O)cc4)cc3)(C(F)(F)F)C(F)(F)F)cc2)cc1 (repeat unit)

>  <unit.info>
Barrer

>  <CH4 permeability>
0.499

$$$$

[P] *C(=C(*)c1ccc([Si](C)(C)C)cc1)c1ccc(-c2ccc(C(C)(C)C)cc2)cc1 (repeat unit)
[Q] *C(=O)c1ccc(C2(c3ccc(C(=O)c4ccc(Oc5ccc(C(=O)c6ccc(C(=O)c7ccc(Oc8ccc(*)cc8)cc7)cc6)cc5)cc4)cc3)OC(=O)c3ccccc32)cc1 (repeat unit)
[R] *CN1CN(*)c2cc3c(cc21)C1(C(C)C)c2ccccc2C3(C(C)C)c2cc(*)c(*)cc21 (repeat unit)
[in] Order these by CH4 permeability, descending, and give the full ranking. Please respond by ranking the labels in the order requested.
[out] P, R, Q

[1] *c1ccc(Cc2ccc(N3C(=O)c4ccc(C(c5ccc6c(c5)C(=O)N(*)C6=O)(C(F)(F)F)C(F)(F)F)cc4C3=O)c(O)c2)cc1O (repeat unit)
[2] *Oc1c(C)cc(C(C)(C)c2cc(C)c(OC(=O)c3cccc(C(*)=O)c3)c(Br)c2)cc1Br (repeat unit)
[in] Quick check, higher CH4 permeability between 1 and 2 ? Your answer should be the label attached to the chosen record.
[out] 2

[a] *c1ccc(N(c2ccccc2)c2ccc(N3C(=O)c4ccc(C(c5ccc6c(c5)C(=O)N(*)C6=O)(C(F)(F)F)C(F)(F)F)cc4C3=O)cc2)cc1 (repeat unit)
[b] *OC(=O)Oc1ccc(C2(c3ccc(*)cc3)c3ccccc3-c3ccccc32)cc1 (repeat unit)
[c] *Oc1ccc(C2(c3ccc(OC(=O)c4cccc(C(*)=O)c4)cc3)OC(=O)c3ccccc32)cc1 (repeat unit)
[in] Order these by CH4 permeability, descending, and give the full ranking. Please respond by ranking the labels in the order requested.
[out] b, c, a
(b: 0.581 Barrer, c: 0.251 Barrer, a: 0.08 Barrer)

====

observation.type: O2 permeability (Barrer)

>  <molecule>
*C(=C(*)c1cccc(O[Si](C)(C)C(C)(C)C)c1)c1ccc([Si](C)(C)C)cc1 (repeat unit)

>  <observation.type>
O2 permeability

>  <reported.measurement>
810

$$$$
>  <molecule>
*c1c(C)cc(Cc2cc(C)c(-n3c(=O)c4cc5c(=O)n(*)c(=O)c5cc4c3=O)c(C)c2)cc1C (repeat unit)

>  <observation.type>
O2 permeability

>  <reported.measurement>
27.4

$$$$
>  <molecule>
*c1ccc(-c2ccc(Oc3ccc(C4(c5ccc(Oc6ccc(-c7ccc(N8C(=O)c9ccc(C(=O)c%10ccc%11c(c%10)C(=O)N(*)C%11=O)cc9C8=O)cc7)cc6C(F)(F)F)cc5)c5ccccc5C(=O)N4c4ccccc4)cc3)c(C(F)(F)F)c2)cc1 (repeat unit)

>  <observation.type>
O2 permeability

>  <reported.measurement>
4.33

$$$$
>  <molecule>
*c1c(C)cc2c(c1C)C1c3ccccc3C2c2cc(C)c(N3C(=O)c4ccc(C(c5ccc6c(c5)C(=O)N(*)C6=O)(C(F)(F)F)C(F)(F)F)cc4C3=O)c(C)c21 (repeat unit)

>  <observation.type>
O2 permeability

>  <reported.measurement>
374

$$$$
>  <molecule>
*Oc1c(Br)cc(C(c2cc(Br)c(OC(=O)c3cccc(C(*)=O)c3)c(Br)c2)(C(F)(F)F)C(F)(F)F)cc1Br (repeat unit)

>  <observation.type>
O2 permeability

>  <reported.measurement>
6.75

$$$$

[a] *C1C(*)C2CC1C1C2C([Si](C)(C)C)C1[Si](C)(C)C (repeat unit)
[b] *c1nc2cc(-c3ccc4[nH]c(-c5cc(Br)c(*)cc5Br)nc4c3)ccc2[nH]1 (repeat unit)
[c] *C(=C(*)c1ccc(C(C)(C)C)cc1)c1ccc(O[Si](C)(C)C(C)(C)C)cc1 (repeat unit)
[d] *c1ccc(Oc2ccc(C(c3ccc(Oc4ccc(-n5c(=O)c6cc7c(=O)n(*)c(=O)c7cc6c5=O)cc4)cc3)(C(F)(F)F)C(F)(F)F)cc2)cc1 (repeat unit)
[e] *C(=C(*)c1ccc(CCCC)cc1)c1ccccc1 (repeat unit)
[in] Order these by O2 permeability, descending, and give the full ranking. Please respond by ranking the labels in the order requested.
[out] a, c, e, d, b
(a: 2380 Barrer, c: 470 Barrer, e: 37 Barrer, d: 3.94 Barrer, b: 0.07 Barrer)

[1] *NC(=O)c1ccc(C(c2ccc(C(=O)O)c(C(=O)Nc3cc(Oc4ccc(*)c(N)c4)ccc3N)c2)(C(F)(F)F)C(F)(F)F)cc1C(=O)O (repeat unit)
[2] */C=C/c1ccc(*)cc1[Si](C)(C)C(C)(C)C (repeat unit)
[in] Quick check, higher O2 permeability between 1 and 2 ? Your answer should be the label attached to the chosen record.
[out] 2
(2: 6.5 Barrer, 1: 0.97 Barrer)

[1] *C(C(=O)OC(C)C)C(*)C(=O)OC1CCCCC1 (repeat unit)
[2] *Oc1cccc(C(C)(C)c2ccc(Oc3ccc(S(=O)(=O)c4ccc(*)cc4)cc3)cc2)c1 (repeat unit)
[in] Quick check, higher O2 permeability between 1 and 2 ? Your answer should be the label attached to the chosen record.
[out] 1
